Experiment: Human HepG2 cell viability assay in 384 well format
Assay type: toxicity, cell-based
Design: dose 125 nL, time 70.5 hour; concentration not given beside the values
Details: HepG2 cells, read-out: Inhibition
outcome_measure: cytotoxicity at 70.5 h (%)
# output: bare number, implied unit %

Some entries whose results are on file:
compound	outcome_measure	endpoint_result
O=C(c1cnccn1)N1CCC(Oc2ncccc2Cl)CC1	cytotoxicity at 70.5 h	4.06
CC(C)(C)c1nccc(N2CCN(C3CCS(=O)(=O)C3)CC2)n1 (centres undefined)	cytotoxicity at 70.5 h	-0.27
COc1cc2nc(C)sc2cc1NC(=O)C(C)NC(N)=O (centres undefined)	cytotoxicity at 70.5 h	1.54
COCCN(CCOC)C(=O)c1ccoc1C	cytotoxicity at 70.5 h	-6.19
c1cc2cc[nH]c2c(CC2CN(Cc3cscn3)C2)n1	cytotoxicity at 70.5 h	-3.59

Please fill in: cytotoxicity at 70.5 h reported for Cc1cccc(OC2CN(C(=O)C3CC(=O)N(C4CC4)C3)C2)c1 (centres undefined) = 4.04

What the record says about c1ccc(CCN2CCCC2c2ccnc(Nc3ncccn3)n2)cc1 (centres undefined) : cytotoxicity at 70.5 h is -5.57

cytotoxicity at 70.5 h reading for "COc1ccccc1C(=O)NS(=O)(=O)c1cncc(Br)c1" : 9.9

The reported value for "CC(C)(CNc1ccccc1S(=O)(=O)C(F)F)N1CCOCC1" in terms of cytotoxicity at 70.5 h is -0.0351

cytotoxicity at 70.5 h measured on "CS(=O)(=O)NC[C@]12COC[C@H]1CN(C(=O)CC1CCCC1)C2" = -13.4

For reference, reported cytotoxicity at 70.5 h for Cc1nc(C(C)N(C)Cc2nc(CCC(C)C)no2)c(C)s1 (centres undefined) stands at 0.293

According to the records, this compound "CCS(=O)(=O)N1CCc2onc(COc3ccccn3)c2C1" displays cytotoxicity at 70.5 h of -3.32

Lab note: measured cytotoxicity at 70.5 h of "CC(C)OC[C@H]1CCC[C@]12CN(S(=O)(=O)C1CC1)CCO2" was -0.771

The reported value for "Cc1ccnc(OC[C@@]23CCO[C@@H]2CCN(S(C)(=O)=O)C3)n1" in terms of cytotoxicity at 70.5 h is -7.11

Given item "N#CCCN(CC(F)(F)F)C(=O)c1cc(-n2cccn2)ccn1" , the value recorded as its cytotoxicity at 70.5 h is -3.35
